- testedOn: Aβ40 (Homo sapiens)
- Construct: Compounds Showing Activity Observed in a ThT Functional Aβ 1-40 Aggregation Assay
- protocolDetails: ThT functional Aβ 1-40 aggregation assay
- Type: biochemical
- recordedConditions: potency with respect to the compound of Example 7, 1=potency of that compound
// reported Ratio per item

Use these answered entries as a reference point.
Sample `CCN(CC)C(=O)c1ccc(N2CCN(C(=O)c3ccccc3)CC2)cc1NCc1ccccc1` — what was its Ratio?
0.05

Sample `CN(C)C(=O)N1CCN(c2ccc([N+](=O)[O-])c(Nc3ccccc3)c2)CC1` — what was its Ratio?
0.72

Sample `O=C(c1ccccc1)N1CCN(c2ccc([N+](=O)[O-])cc2NCc2ccccc2)CC1` — what was its Ratio?
0.22

Sample `O=C(Nc1ccccc1)C1CCN(c2ccc([N+](=O)[O-])c(NCc3ccccc3)c2)CC1` — what was its Ratio?
0.05

Sample `O=C(c1ccccc1)N1CCN(c2ccc([N+](=O)[O-])cc2Nc2ccccc2)CC1` — what was its Ratio?
0.34

Continuing:
Sample O=C(c1ccccc1)N1CCN(c2cccc([N+](=O)[O-])c2)CC1 [drawing 132] — what was its Ratio?
0.04

Sample `O=C(NCc1ccccc1)c1cccc(-c2ccc([N+](=O)[O-])c(NCc3ccccc3)c2)c1` — what was its Ratio?
0

Sample O=C(O)c1cccc(-c2ccc([N+](=O)[O-])c(Nc3ccccc3)c2)c1 [drawing 149] — what was its Ratio?
2.3

Sample `O=C(NCc1ccccc1)c1ccc(-c2ccc([N+](=O)[O-])c(NCc3ccccc3)c2)cc1` — what was its Ratio?
0.11

Sample `CC(=O)Nc1cc(N2CCN(C(=O)c3ccccc3)CC2)ccc1[N+](=O)[O-]` — what was its Ratio?
0.19

---

- testedOn: Aβ40 (Homo sapiens, UniProt P05067)
- Construct: Compounds Showing Activity Observed in a ThT Functional Aβ 1-40 Aggregation Assay
- Sequence (P05067 672-711 limits assumed): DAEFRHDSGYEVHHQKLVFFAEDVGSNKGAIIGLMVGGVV
- protocolDetails: ThT functional Aβ 1-40 aggregation assay
- Format: biochemical
- recordedConditions: potency with respect to the compound of Example 7, 1=potency of that compound
property: Ratio
Answer with the value's number alone.

Use these answered entries as a reference point.
Sample CN1CCN(c2ccc([N+](=O)[O-])c(NCc3ccccc3)c2)CC1 [drawing 103] — what was its Ratio?
0.1

Sample `CN(c1ccccc1)c1cc(N2CCN(C(=O)c3ccccc3)CC2)ccc1[N+](=O)[O-]` — what was its Ratio?
0.9

Sample `O=C(Nc1cc([N+](=O)[O-])ccc1N1CCN(C(=O)c2ccccc2)CC1)c1ccccc1` — what was its Ratio?
0.01

Sample `O=C(c1ccccc1)N1CCN(c2ccc(NCCN3CCOCC3)c(Nc3ccccc3)c2)CC1` — what was its Ratio?
0.17

Continuing:
Sample `CC(=O)N1CCN(c2ccc([N+](=O)[O-])c(NCc3ccccc3)c2)CC1` — what was its Ratio?
0.58

Sample `O=C(c1ccccc1)N1CCN(c2ccc([N+](=O)[O-])c(NCc3ccccc3)c2)CC1` — what was its Ratio?
0.09

Sample `O=C(O)C1CCN(c2ccc([N+](=O)[O-])c(NCc3ccccc3)c2)CC1` — what was its Ratio?
0.89

Sample `O=C(NCc1ccccc1)C1CCN(c2ccc([N+](=O)[O-])c(NCc3ccccc3)c2)CC1` — what was its Ratio?
0.03

Sample O=C(c1ccccc1)N1CCN(c2cccc([N+](=O)[O-])c2)CC1 [drawing 151] — what was its Ratio?
0.06

Sample `CN(C)c1cc(N2CCN(C(=O)c3ccccc3)CC2)ccc1[N+](=O)[O-]` — what was its Ratio?
0.88

Sample `O=C(Nc1ccccc1)c1cccc(-c2ccc([N+](=O)[O-])c(NCc3ccccc3)c2)c1` — what was its Ratio?
0

Sample `CNc1ccc(N2CCN(C(=O)c3ccccc3)CC2)cc1Nc1ccccc1` — what was its Ratio?
4.4

Sample `O=C(Nc1ccccc1)c1ccccc1-c1ccc([N+](=O)[O-])c(NCc2ccccc2)c1` — what was its Ratio?
0.03

The reported numbers originate from patent US8420640B2.
